Recorded values, source patent US20040170644A1.

A collection of binders and their measured pIC50
# system under test: T1, HLA-DR7 molecule (DRB1*0701) (human)
# T1 chain 1: not shown
# T1 chain 2: not shown
# assay details: competition ELISA vs biotin-YKL
pIC50: −log10 of the molar value.
experimental endpoint: pIC50

{"columns": ["binder", "experimental endpoint", "reading"],
 "data": [
  ["RTLEDLLMGTLGIVC (modifications not checked) [E7 77-91]", "pIC50", 7.26],
  ["KCDSTLRLCVQSTHV (modifications not checked) [E7(60-74)]", "pIC50", 6.05],
  ["TTLEQQYNKPLCDLL (modifications not checked) [E6 93-107]", "pIC50", 5.11],
  ["LRREVYDFAFRDLCIVYRDGNPY (modifications not checked) [E6(45-67)]", "pIC50", 5.63],
  ["LRLCVQSTHVDIRTLEDLLMGTL (modifications not checked) [E7(65-87)]", "pIC50", 6.05],
  ["MGTLGIVCPICSQKP (modifications not checked) [E7 84-98]", "pIC50", 5.90],
  ["LCVQSTHVDIRTLED (modifications not checked) [E7 67-81]", "pIC50", 5.82],
  ["ERPRKLPQLCTELQTTIHDII (modifications not checked) [E6(14-34)]", "pIC50", 6.65],
  ["LRLCVQSTHVDIRTL (modifications not checked) [E7 65-79]", "pIC50", 6.22],
  ["QRFHNIRGRWTGRCM (modifications not checked) [E6 130-144]", "pIC50", 6.02],
  ["RHYCYSLYGTTLEQQ (modifications not checked) [E6 84-98]", "pIC50", 5.49],
  ["TELQTTIHDIILECV (modifications not checked) [E6 24-38]", "pIC50", 5.82],
  ["SLYGTTLEQQYNKPL (modifications not checked) [E6 89-103]", "pIC50", 5.82],
  ["EKQRHLDKKQRFHNIRGRWT (modifications not checked) [E6(121-140)]", "pIC50", 6.70]
]}
